Provenance of the data: paper PMC11859928

molecular target: tubulin (Sus scrofa, UniProt P02550+P02554); construct: purchased Cytoskeleton Inc., Denver, CO, USA; assay: Tubulin polymerization inhibitory assay; type: biochemical; conditions: conc 100 (unit not given; IC50 from this curve in µg/ml)
Sequence (P02554 whole entry): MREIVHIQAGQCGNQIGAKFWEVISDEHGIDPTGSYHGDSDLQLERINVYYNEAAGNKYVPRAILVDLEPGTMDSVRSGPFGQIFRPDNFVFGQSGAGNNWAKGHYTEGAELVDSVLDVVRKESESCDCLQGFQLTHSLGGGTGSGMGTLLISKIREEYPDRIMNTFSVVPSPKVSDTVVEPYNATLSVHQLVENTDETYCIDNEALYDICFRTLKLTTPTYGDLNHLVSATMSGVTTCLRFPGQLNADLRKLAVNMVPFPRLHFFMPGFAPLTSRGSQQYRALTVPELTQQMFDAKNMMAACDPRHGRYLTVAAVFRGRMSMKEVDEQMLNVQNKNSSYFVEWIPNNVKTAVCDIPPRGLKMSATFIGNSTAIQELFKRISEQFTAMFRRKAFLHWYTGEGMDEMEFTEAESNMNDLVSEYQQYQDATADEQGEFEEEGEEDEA
Sequence (P02550 whole entry): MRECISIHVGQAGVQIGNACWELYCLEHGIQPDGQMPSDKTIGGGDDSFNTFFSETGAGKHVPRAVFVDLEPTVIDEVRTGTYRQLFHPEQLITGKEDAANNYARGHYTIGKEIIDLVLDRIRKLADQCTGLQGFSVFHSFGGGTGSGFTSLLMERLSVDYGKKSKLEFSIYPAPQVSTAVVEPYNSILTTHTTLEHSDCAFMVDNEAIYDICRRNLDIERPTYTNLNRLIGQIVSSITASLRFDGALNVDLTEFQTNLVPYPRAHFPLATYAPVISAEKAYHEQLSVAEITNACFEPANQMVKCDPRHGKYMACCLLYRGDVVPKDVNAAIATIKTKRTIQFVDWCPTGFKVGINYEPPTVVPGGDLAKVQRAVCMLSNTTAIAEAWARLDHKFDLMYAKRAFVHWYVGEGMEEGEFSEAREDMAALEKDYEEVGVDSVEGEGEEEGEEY
Measured Parameter: %inhibition
Form field: result (number plus unit)

I have this compound here, Cc1ccc(/C(CSc2nnc(-c3c[nH]c4ccccc34)n2-c2ccccc2)=N/O)cc1 [Compound 7h] , and I need its recorded %inhibition.
76.7%

I have this compound here, O/N=C(\CSc1nnc(-c2c[nH]c3ccccc23)n1-c1ccccc1)c1ccc(Br)cc1 [Compound 7i] , and I need its recorded %inhibition.
87%

I have this compound here, Cc1ccc(C(=O)CSc2nnc(-c3c[nH]c4ccccc34)n2-c2ccccc2)cc1 [Compound 6h] , and I need its recorded %inhibition.
81.2%

I have this compound here, COc1ccc(/C=C\c2cc(OC)c(OC)c(OC)c2)cc1O [CA-4, combretastatin A-4, reference compound] , and I need its recorded %inhibition.
84.2%

I have this compound here, O/N=C(\CSc1nnc(-c2c[nH]c3ccccc23)n1-c1ccccc1)c1ccc(Cl)cc1 [Compound 7j] , and I need its recorded %inhibition.
87.6%

###

For each record, write down the corresponding %inhibition.
molecular target: tubulin (Sus scrofa, UniProt P02550+P02554); construct: purchased Cytoskeleton Inc., Denver, CO, USA; test: Tubulin polymerization inhibitory assay; assay type: biochemical; conditions: conc 1 (unit not given; IC50 from this curve in µg/ml)
Express the result in % but write the number alone.

Recall the recorded %inhibition for `Cc1ccc(/C(CSc2nnc(-c3c[nH]c4ccccc34)n2-c2ccccc2)=N/O)cc1` with tubulin (Sus scrofa, UniProt P02550+P02554) and state it.
26.1

Recall the recorded %inhibition for `O/N=C(\CSc1nnc(-c2c[nH]c3ccccc23)n1-c1ccccc1)c1ccc(Br)cc1` with tubulin (Sus scrofa, UniProt P02550+P02554) and state it.
47.4

Recall the recorded %inhibition for COc1ccc(/C=C\c2cc(OC)c(OC)c(OC)c2)cc1O [CA-4, combretastatin A-4, reference compound] with tubulin (Sus scrofa, UniProt P02550+P02554) and state it.
34.9

Recall the recorded %inhibition for `Cc1ccc(C(=O)CSc2nnc(-c3c[nH]c4ccccc34)n2-c2ccccc2)cc1` with tubulin (Sus scrofa, UniProt P02550+P02554) and state it.
30

Recall the recorded %inhibition for `O/N=C(\CSc1nnc(-c2c[nH]c3ccccc23)n1-c1ccccc1)c1ccc(Cl)cc1` with tubulin (Sus scrofa, UniProt P02550+P02554) and state it.
34.8

###

System: OVCAR-3
Assay: NCI one-dose assay
Assay type: cell-based
Conditions: Homo sapiens, OVCAR-3, Ovarian cancer, read-out: Cell growth inhibition %
Protocol: The National Cancer Institute (NCI), Bethesda, USA, selected the final compounds 6a–j and 7a–j for in vitro anticancer screening. An initial in vitro single-dose anticancer experiment was performed with the entire NCI 60 cell lines derived from nine tumor subpanel cancer cell lines. The results for each compound were illustrated as a mean graph showing the percentage growth of treated cells compared to untreated control cells (see Supplementary Materials). […]
For each record, write down the corresponding inhibition at 10 µM.
Express the result in % but write the number alone.

I have this molecule here, `COc1ccc(/C(CSc2nnc(-c3c[nH]c4ccccc34)n2-c2ccccc2)=N/O)cc1` , and I need its recorded inhibition at 10 µM.
69.5

I have this molecule here, `C=CCn1c(SCC(=NO)c2ccc(OC)cc2)nnc1-c1c[nH]c2ccccc12` , and I need its recorded inhibition at 10 µM.
-9.23

I have this molecule here, `C=CCn1c(SCC(=O)c2ccc(C)cc2)nnc1-c1c[nH]c2ccccc12` , and I need its recorded inhibition at 10 µM.
-13.1

I have this molecule here, `O/N=C(\CSc1nnc(-c2c[nH]c3ccccc23)n1-c1ccccc1)c1ccc(Br)cc1` , and I need its recorded inhibition at 10 µM.
99.3

I have this molecule here, `C=CCn1c(SCC(=O)c2ccc(Br)cc2)nnc1-c1c[nH]c2ccccc12` , and I need its recorded inhibition at 10 µM.
-10.4

I have this molecule here, `O/N=C(\CSc1nnc(-c2c[nH]c3ccccc23)n1-c1ccccc1)c1ccc(Cl)cc1` , and I need its recorded inhibition at 10 µM.
65.8

I have this molecule here, `O=C(CSc1nnc(-c2c[nH]c3ccccc23)n1-c1ccccc1)c1ccc(Cl)cc1` , and I need its recorded inhibition at 10 µM.
26.1

I have this molecule here, `C=CCn1c(SCC(=O)c2ccc(Cl)cc2)nnc1-c1c[nH]c2ccccc12` , and I need its recorded inhibition at 10 µM.
-12.2

I have this molecule here, `C=CCn1c(SC/C(=N\O)c2ccccc2)nnc1-c1c[nH]c2ccccc12` , and I need its recorded inhibition at 10 µM.
-14.9

I have this molecule here, `C=CCn1c(SCC(=O)c2ccc(OC)cc2)nnc1-c1c[nH]c2ccccc12` , and I need its recorded inhibition at 10 µM.
-16.9

I have this molecule here, `O=C(CSc1nnc(-c2c[nH]c3ccccc23)n1-c1ccccc1)c1ccccc1` , and I need its recorded inhibition at 10 µM.
39.2

I have this molecule here, `C=CCn1c(SC/C(=N\O)c2ccc(Br)cc2)nnc1-c1c[nH]c2ccccc12` , and I need its recorded inhibition at 10 µM.
-3.34
